target.of.assay: T1, Human Meprin beta (human, UniProt Q16820 62-652, limits assumed)
T1 sequence (looked up): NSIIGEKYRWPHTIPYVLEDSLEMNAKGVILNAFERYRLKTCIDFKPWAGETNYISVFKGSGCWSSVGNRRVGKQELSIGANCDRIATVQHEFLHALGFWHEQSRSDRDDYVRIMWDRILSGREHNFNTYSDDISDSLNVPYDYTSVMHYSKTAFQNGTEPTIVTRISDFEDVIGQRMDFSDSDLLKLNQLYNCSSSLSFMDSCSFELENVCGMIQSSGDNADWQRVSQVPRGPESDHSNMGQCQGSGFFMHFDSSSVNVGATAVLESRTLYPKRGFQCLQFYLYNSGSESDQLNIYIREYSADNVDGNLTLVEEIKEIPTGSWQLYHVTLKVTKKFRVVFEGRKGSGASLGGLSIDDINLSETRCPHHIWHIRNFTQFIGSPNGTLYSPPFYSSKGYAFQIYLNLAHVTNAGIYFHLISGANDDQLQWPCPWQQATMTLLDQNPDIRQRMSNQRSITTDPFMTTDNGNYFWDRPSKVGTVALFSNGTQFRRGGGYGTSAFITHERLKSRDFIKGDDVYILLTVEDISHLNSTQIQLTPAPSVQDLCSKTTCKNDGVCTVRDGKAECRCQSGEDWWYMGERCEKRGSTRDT
method.description: cell-based or functional assay
Flag rule - IC50, inhibition of activated Meprin beta on fluorescent substrate PEPDAB022 less than 4 µM flags Satisfied; the remaining entries get Not satisfied.

Please review the entries below; each comes with its answer.
{"binder": "modified ADAM9 prodomain peptide SEQ ID NO: 12 (peptide) ARPGFQQTSHLSSYEIITPWRLTRERAEAPRPYSKQVSYVIQAEGKEHIIHLERNKDLLPEDFVVYTYNKEGTLITDHPNIQNHSHYRGYVEGVHNSSIALSDSFGLRGLLHLENASYGIEPLQNSSHFEHIIYRMDDVYKEPLKSGVSNKDIEKETAKDEEEEPPSMTQLLRR", "label.value": "Not satisfied"}
{"binder": "25-3 (SEQ ID NO: 23), as labelled in Table 5 (peptide) ARPGFQQTSHLSSYEIITPWRLTRERAEAPRPYSKQVSYVIQAEGKEHIIHLERNKDLLPEDFVVYTYNKEGTLITDHPNIQNHSHYRGYVEGVHNSSIALSDSFGLRGLLHLENASYGIEPLQNSSHFEHIIYRMDDVYKEPLKSGVSNKDIEKETAKDEEEEPPSMTQLLRRGSGSC", "label.value": "Not satisfied"}
{"binder": "25-2 (SEQ ID NO: 22), as labelled in Table 5 (peptide) GSCGSARPGFQQTSHLSSYEIITPWRLTRERAEAPRPYSKQVSYVIQAEGKEHIIHLERNKDLLPEDFVVYTYNKEGTLITDHPNIQNHSHYRGYVEGVHNSSIALSDSFGLRGLLHLENASYGIEPLQNSSHFEHIIYRMDDVYKEPLKSGVSNKDIEKETAKDEEEEPPSMTQLLRR", "label.value": "Satisfied"}
{"binder": "25-1 (SEQ ID NO: 21), as labelled in Table 5 (peptide) ARPGFQQTSHLSSYEIITPWRLTRERAEAPRPYSKQVSYVIQAEGKEHIIHLERNKDLLPEDFVVYTYNKEGTLITDHPNIQNHSHYRGYVEGVHNSSIALSDSFGLRGLLHLENASYGIEPLQNSSHFEHIIYRMDDVYKEPLKCGVSNKDIEKETAKDEEEEPPSMTQLLRR", "label.value": "Satisfied"}

Please turn your attention to the following entry.
Find out if reported IC50, inhibition of activated Meprin beta on fluorescent substrate PEPDAB022 for wild type human ADAM9 prodomain peptide (SEQ ID NO: 2) (peptide) ARPGFQQTSHLSSYEIITPWRLTRERREAPRPYSKQVSYVIQAEGKEHIIHLERNKDLLPEDFVVYTYNKEGTLITDHPNIQNHCHYRGYVEGVHNSSIALSDCFGLRGLLHLENASYGIEPLQNSSHFEHIIYRMDDVYKEPLKCGVSNKDIEKETAKDEEEEPPSMTQLLRR is less than 4 µM
Satisfied
